Values from PubChem BioAssay AID1347165

- SYSTEM: Lysine-specific demethylase 5B (Homo sapiens) (UniProt Q9UGL1)
- Sequence (Q9UGL1 whole entry, looked up): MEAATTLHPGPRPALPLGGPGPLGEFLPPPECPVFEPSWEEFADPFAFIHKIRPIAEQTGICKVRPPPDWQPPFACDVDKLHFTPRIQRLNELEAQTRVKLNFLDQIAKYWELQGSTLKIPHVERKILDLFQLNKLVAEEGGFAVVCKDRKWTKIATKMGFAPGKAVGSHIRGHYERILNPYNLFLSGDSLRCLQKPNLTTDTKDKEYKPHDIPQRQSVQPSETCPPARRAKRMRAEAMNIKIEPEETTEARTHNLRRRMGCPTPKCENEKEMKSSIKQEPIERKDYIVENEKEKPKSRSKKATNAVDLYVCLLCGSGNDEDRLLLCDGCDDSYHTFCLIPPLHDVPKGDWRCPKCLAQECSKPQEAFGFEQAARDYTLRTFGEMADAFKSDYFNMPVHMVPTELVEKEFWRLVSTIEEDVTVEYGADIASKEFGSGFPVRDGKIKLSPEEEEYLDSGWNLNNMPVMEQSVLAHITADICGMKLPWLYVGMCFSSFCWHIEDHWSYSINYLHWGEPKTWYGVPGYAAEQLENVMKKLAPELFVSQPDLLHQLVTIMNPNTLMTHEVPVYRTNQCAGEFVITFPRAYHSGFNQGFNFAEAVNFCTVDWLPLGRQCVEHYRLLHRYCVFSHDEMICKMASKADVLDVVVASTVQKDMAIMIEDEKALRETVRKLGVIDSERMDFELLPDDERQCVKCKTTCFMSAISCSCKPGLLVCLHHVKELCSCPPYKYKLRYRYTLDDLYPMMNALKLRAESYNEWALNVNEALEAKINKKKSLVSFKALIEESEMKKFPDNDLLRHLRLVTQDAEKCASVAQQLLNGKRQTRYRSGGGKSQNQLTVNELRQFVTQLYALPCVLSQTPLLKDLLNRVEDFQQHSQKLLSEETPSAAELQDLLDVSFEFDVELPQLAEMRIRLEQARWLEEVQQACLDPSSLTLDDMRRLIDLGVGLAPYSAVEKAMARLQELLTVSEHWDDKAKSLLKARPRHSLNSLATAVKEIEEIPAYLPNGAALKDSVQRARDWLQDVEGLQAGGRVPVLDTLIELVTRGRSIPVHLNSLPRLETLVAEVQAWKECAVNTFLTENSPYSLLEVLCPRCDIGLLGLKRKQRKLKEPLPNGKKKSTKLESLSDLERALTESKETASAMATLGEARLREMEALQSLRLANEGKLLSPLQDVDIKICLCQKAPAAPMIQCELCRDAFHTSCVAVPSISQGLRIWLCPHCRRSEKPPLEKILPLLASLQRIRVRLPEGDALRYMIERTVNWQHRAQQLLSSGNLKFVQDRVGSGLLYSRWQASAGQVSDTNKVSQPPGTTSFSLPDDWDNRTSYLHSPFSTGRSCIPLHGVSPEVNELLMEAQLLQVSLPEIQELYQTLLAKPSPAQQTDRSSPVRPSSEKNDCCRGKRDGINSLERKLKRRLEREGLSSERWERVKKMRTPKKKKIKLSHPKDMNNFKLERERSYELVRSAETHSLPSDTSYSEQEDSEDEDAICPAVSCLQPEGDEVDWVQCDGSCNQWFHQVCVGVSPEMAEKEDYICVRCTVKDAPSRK
- ASSAY REMARKS: Primary screen for KDM5B Histone Demethylases FDH-coupled qHTS; note: nearly all actives have a fitted effect of over 70% in size
- CONDITION SET: FDH-coupled NADH fluorescence; series mostly up to 57.7 µM
About 5,700 (2.6%) of roughly 220,000 compounds were called active. Roughly 18% stayed inconclusive and do not appear here. Calls come from the whole dose curve; as a rule, active = well fitted inhibition curve with a large enough effect; inconclusive = small, poorly fitted or top-dose-only effect; inactive = no such curve, though single readings can be large or run the other way. This excerpt belongs to a sample that is enriched for actives.
Your response should consist of one outcome taken from true for active, false for inactive

Hey, what did the test say about `COc1cc2c(cc1Oc1cccc(N(C)C)c1)NC(=O)C21CCN(Cc2ccccn2)CC1` ?
false

Hey, what did the test say about CC1(C)NN1CCCCN1NC1(C)C (stereo unspecified) ?
false

Hey, what did the test say about `Cn1nc(-c2cccs2)cc1[C@H]1CN2CC[C@H]1C[C@@H]2CNC(=O)Nc1ccccc1` ?
false

Hey, what did the test say about `COc1ccc(-c2cc([C@H]3CN4CC[C@H]3C[C@@H]4COC(=O)NC(C)C)nc(C)n2)cc1` ?
true

Hey, what did the test say about `O=C(Nc1ccc(Cl)cc1)N1C[C@@H]2C[C@H](C1)c1c(-c3ccccc3F)ccc(=O)n1C2` ?
false

Hey, what did the test say about `CCCS(=O)(=O)NC[C@H]1C[C@@H]2CCN1C[C@@H]2c1cc(-c2ccccc2)nc(C)n1` ?
false

Hey, what did the test say about `Cc1nc(C)c(C(=O)N2[C@H]3CC[C@@H]2c2cnc(-c4ccccc4)nc2C3)s1` ?
false

Hey, what did the test say about `Cc1nc(-c2ccc(N(C)C)cc2)cc([C@H]2CN3CC[C@H]2C[C@@H]3CNC(=O)C2CCC2)n1` ?
true

Hey, what did the test say about `O=C(COc1ccccc1)N1C[C@@H]2C[C@H](C1)c1c(-c3ccccc3F)ccc(=O)n1C2` ?
false

Hey, what did the test say about `O=C(NC1CCCCC1)N1C[C@@H]2C[C@H](C1)c1c(-c3ccccc3F)ccc(=O)n1C2` ?
false

Hey, what did the test say about `O=C(c1ccncc1)N1C[C@@H]2C[C@H](C1)c1ccc(C3CCCCC3)c(=O)n1C2` ?
false

Hey, what did the test say about `c1ccc(CCN2CCC3(CC2)OCCO3)cc1` ?
false

Hey, what did the test say about `CC(C)(C)NC(=O)NC(=O)CCl` ?
false

Hey, what did the test say about `Cc1ccc(C(=O)N2[C@H]3CC[C@@H]2c2cnc(-c4ccccc4)nc2C3)c(C)c1` ?
false

Hey, what did the test say about `Cc1nc(-c2ccccc2)cc([C@H]2CN3CC[C@H]2C[C@@H]3CNC2CCOCC2)n1` ?
false

Hey, what did the test say about COC1CN(c2ccc(C)cc2)C12CCNCC2 (stereo unspecified) ?
false

Hey, what did the test say about `Cc1ccccc1-c1ccc2n(c1=O)C[C@H]1C[C@@H]2CN(C(=O)CSCC(=O)O)C1` ?
true

Hey, what did the test say about `CN(C)C(=O)Oc1ccc2c(=O)c(-c3ccc(Br)cc3)c(C(F)(F)F)oc2c1` ?
false

====

- SYSTEM: Lysine-specific demethylase 5B (Homo sapiens)
- ASSAY REMARKS: Primary screen for KDM5B Histone Demethylases FDH-coupled qHTS; note: nearly all actives have a fitted effect of over 70% in size
- CONDITION SET: FDH-coupled NADH fluorescence (FDH is formaldehyde dehydrogenase); series mostly up to 57.7 µM
The whole screen tested about 220,000 compounds, of which about 5,700 (2.6%) were called active. Inconclusive results (about 18%) are left out. Calls come from the whole dose curve; as a rule, active = well fitted inhibition curve with a large enough effect; inconclusive = small, poorly fitted or top-dose-only effect; inactive = no such curve, though single readings can be large or run the other way. Shown is part of a subset that was picked to be rich in actives.
Your response should consist of one outcome taken from active, inactive

Worked set:
COc1ccccc1-c1cc([C@H]2CN3CC[C@H]2C[C@@H]3CNC(C)=O)n(C)n1 : inactive
CC(=O)Nc1ccc(-c2ccc3n(c2=O)C[C@H]2C[C@@H]3CN(C3CCN(C)CC3)C2)cc1 : active

Pending compound:
Hey, what did the test say about `CCOC(=O)c1c(C)n(Cc2ccccc2Cl)c2ccc(O)cc12` ?
inactive
